# Tested on: SKOV3
# TEST NAME: Primary qHTS to identify gynecologic anti-cancer compounds using libraries of approved drugs and bioactive compounds (AID 1345084); further: on the % scale 0 is the no-effect control and ±100 the full control effect; nearly all actives have a fitted effect of over 55% in size
# MEASUREMENT CONTEXT: Gynecologic cancer cell panel viability, ATPlite luminescence, 48 h; series mostly up to 57.5 µM
Results filed as inconclusive are left out. The source made the active and inactive calls. The call rests on the fitted dose curve; in most records, active means well fitted cell-killing curve with a large enough effect; inconclusive means small, poorly fitted or top-dose-only effect, or effect the other way; inactive means flat fitted curve, though single readings scatter.
TEST READOUT: activity change, negative = cytotoxicity

1. CC1=CC[C@]2(C(=O)O[C@@H]3O[C@H](CO[C@@H]4O[C@H](CO)[C@@H](O[C@@H]5O[C@@H](C)[C@H](O)[C@@H](O)[C@H]5O)[C@H](O)[C@H]4O)[C@@H](O)[C@H](O)[C@H]3O)CC[C@]3(C)C(CCC4[C@@]5(C)C[C@@H](O)[C@H](O)[C@@](C)(CO)C5CC[C@]43C)C2C1C (stereo partly specified)	-2.91% [at 11.6 µM] (inactive)
2. CC1(C)C(=O)N2c3ccccc3[C@]3(CC(n4cnc5ccccc5c4=O)C(=O)O3)[C@H]2N1O (stereo partly specified)	inactive
3. O=C(O[C@H]1[C@@H]2C[C@@H]3OC[C@@](O)([C@H]2[C@H](O[C@@H]2O[C@H](CO)[C@@H](O)[C@H](O)[C@H]2O)O3)[C@@H]1O)c1ccccc1	inactive
4. C/C=C/C=C/C=C/C(=O)O[C@@H]1[C@@H](OC)C2=C(C(=O)N(C(C)C(=O)O)C2)[C@@]2(C)CCCC(C)(C)[C@H]12 (stereo partly specified)	inactive
5. CCOc1nc2cccc(C(=O)OCc3oc(=O)oc3C)c2n1Cc1ccc(-c2ccccc2-c2noc(O)n2)cc1	inactive
6. COc1cc(C2Oc3c(OC)cc(CCCO[C@@H]4O[C@H](CO)[C@@H](O)[C@H](O)[C@H]4O)cc3C2CO)ccc1O (stereo partly specified)	inactive

* * *

Potency values, listed per item
# TEST SYSTEM: Luciferin 4-monooxygenase (Photinus pyralis)
# TEST NAME: Primary firefly luciferase (FLuc) qHTS assay for identification of artifact compounds. (AID 1845220); further: potency means the concentration at half of the fitted maximal effect; nearly all actives have a fitted effect of over 60% in size
# MEASUREMENT CONTEXT: purified firefly luciferase, luminescence, 5 min; series mostly up to 54.1 µM
Active and inactive are the calls of the source. The call rests on the fitted dose curve; in most records, active means well fitted inhibition curve with a large enough effect; inconclusive means small, poorly fitted or top-dose-only effect; inactive means flat fitted curve, though single readings scatter.
TEST READOUT: Potency

1) c1ccc(Nc2nc3c(s2)CCCc2[nH]ncc2-3)nc1	8.49 µM (active)
2) O=C(O)C[C@@H](NC(=O)c1cc(-c2ccc(-c3ccncc3)cc2)cs1)c1ccccc1	6.75 µM (active)
3) C/C=C(\C)C(=O)O[C@H]1[C@@H](O[C@]2(COC(=O)CC(C)C)O[C@H](COC(=O)C(C)C)[C@@H](OC(C)=O)[C@@H]2O)O[C@H](COC(C)=O)[C@@H](O)[C@@H]1O	4.46 µM (active)
4) C/C=C/C=C/C(CC(=O)O)Nc1ccc(C=O)cc1 (stereo not given)	23.9 µM (active)
5) O=C(O)c1cnn(-c2nc3cc(OC(F)(F)F)c(Cl)cc3[nH]2)c1	3.01 µM (active)

* * *

# TEST NAME: Primary qHTS for inhibitors of nuclear receptor binding SET domain protein 2 (NSD2) in an RCH-ACV wild type WT cells (2C) (AID 1645877); further: potency means the concentration at half of the fitted maximal effect; nearly all actives have a fitted effect of over 70% in size
# MEASUREMENT CONTEXT: RCH-ACV (leukaemia line) NSD2 WT (2C) viability, CellTiter-Glo, 72 h; series mostly up to 44.9 µM
Inconclusive results are not listed. Calls of active or inactive are those of the source. Calls come from the whole dose curve; as a rule, active = well fitted inhibition curve with a large enough effect; inconclusive = small, poorly fitted or top-dose-only effect; inactive = no such curve, though single readings can be large or run the other way.
TEST READOUT: Potency

1. CCn1c2ccccc2c2cc(CNC)ccc21	23 µM (active)
2. COc1ccc(C[C@H](N)C(=O)N[C@H]2[C@@H](O)[C@H](n3cnc4c(N(C)C)ncnc43)O[C@@H]2CO)cc1	0.258 µM (active)
3. OC[C@H]1O[C@@H](Oc2ccc3c(c2)OC[C@H]2c4cc5c(cc4O[C@@H]32)OCO5)[C@H](O)[C@@H](O)[C@@H]1O	7.96 µM (active)
4. C[C@]12C=CC(=O)C=C1CC[C@@H]1[C@@H]2[C@@H](O)C[C@@]2(C)[C@H]1CC[C@]2(O)C(=O)COC(=O)CCC(=O)O	0.258 µM (active)
5. CCCOc1ccn2c(C(C)=O)cc(-c3ccccc3S(C)(=O)=O)c2c1	18.6 µM (active)
